- target under test: human PD-1 antigen protein of the affinity-maturation screen (human, UniProt Q15116 25-167, limits assumed, biotinylated)
- Sequence (Q15116 25-167 limits assumed): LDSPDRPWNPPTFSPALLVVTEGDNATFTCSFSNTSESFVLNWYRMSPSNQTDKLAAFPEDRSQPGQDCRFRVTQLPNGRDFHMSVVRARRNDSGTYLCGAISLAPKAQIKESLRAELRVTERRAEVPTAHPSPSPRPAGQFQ
- method: capture ELISA, second-round affinity-maturation screen (scFv format likely); unit not given
Provide the recorded Bmax for the entries that follow.
Enter a number only.

### Prompt Using known records, supply Bmax for 2G4 (antibody, human IgG4, V domains shown) VH: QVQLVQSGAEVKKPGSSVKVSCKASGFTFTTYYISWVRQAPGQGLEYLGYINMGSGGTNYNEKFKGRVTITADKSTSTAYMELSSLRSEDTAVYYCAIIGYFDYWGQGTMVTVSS VL: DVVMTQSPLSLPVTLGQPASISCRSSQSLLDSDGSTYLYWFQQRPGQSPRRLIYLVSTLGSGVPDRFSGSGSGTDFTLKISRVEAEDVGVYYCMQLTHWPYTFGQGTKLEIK
### Response 3.37

### Prompt Return Bmax (reported value) for this binder: 2E5 (antibody, human IgG4, V domains shown) VH: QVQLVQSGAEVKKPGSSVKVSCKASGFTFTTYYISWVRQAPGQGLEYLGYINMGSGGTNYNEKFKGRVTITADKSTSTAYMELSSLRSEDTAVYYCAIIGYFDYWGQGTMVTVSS VL: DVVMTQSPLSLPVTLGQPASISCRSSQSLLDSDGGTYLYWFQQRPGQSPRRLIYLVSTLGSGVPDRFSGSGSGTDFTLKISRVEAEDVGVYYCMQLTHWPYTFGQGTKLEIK
### Response 3.28

### Prompt Please give measured Bmax of the following entry: 5C4 (antibody, V domains shown) VH: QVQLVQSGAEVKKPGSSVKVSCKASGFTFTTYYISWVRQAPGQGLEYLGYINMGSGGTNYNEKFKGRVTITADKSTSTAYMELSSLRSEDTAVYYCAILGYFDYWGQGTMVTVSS VL: DVVMTQSPLSLPVTLGQPASISCRSSQSLLDSDGQTYLYWFQQRPGQSPRRLIYLVSTLGSGVPDRFSGSGSGTDFTLKISRVEAEDVGVYYCMQLTHEPYTFGQGTKLEIK
### Response 2.65

### Prompt Annotate the binder 1G10 (antibody, V domains shown) VH: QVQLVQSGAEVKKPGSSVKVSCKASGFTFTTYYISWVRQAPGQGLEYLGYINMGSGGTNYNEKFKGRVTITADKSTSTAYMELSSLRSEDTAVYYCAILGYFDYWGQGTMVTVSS VL: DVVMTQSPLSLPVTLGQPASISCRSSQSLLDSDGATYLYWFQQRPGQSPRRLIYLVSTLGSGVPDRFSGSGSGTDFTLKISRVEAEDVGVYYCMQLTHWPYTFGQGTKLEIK with its measured Bmax.
### Response 2.6

### Prompt Report Bmax, nothing else, for this binder: 8C10 (antibody, V domains shown) VH: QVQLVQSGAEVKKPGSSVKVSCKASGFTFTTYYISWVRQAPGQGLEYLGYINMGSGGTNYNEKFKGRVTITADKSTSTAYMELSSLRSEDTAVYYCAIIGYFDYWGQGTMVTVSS VL: DVVMTQSPLSLPVTLGQPASISCRSSQSLLDSDGQTYLYWFQQRPGQSPRRLIYLVSTLGSGVPDRFSGSGSGTDFTLKISRVEAEDVGVYYCMQLTHENYTFGQGTKLEIK
### Response 2.31

### Prompt Name the recorded Bmax of the binder listed here: L1I (antibody, V domains shown, also called L11) VH: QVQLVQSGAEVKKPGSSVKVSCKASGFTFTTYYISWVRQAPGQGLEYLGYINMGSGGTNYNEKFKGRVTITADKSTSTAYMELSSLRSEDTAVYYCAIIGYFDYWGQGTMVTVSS VL: DVVMTQSPLSLPVTLGQPASISCRSSQSLLDSDGNTYLYWFQQRPGQSPRRLIYLVSTLGSGVPDRFSGSGSGTDFTLKISRVEAEDVGVYYCMQLTHAPYTFGQGTKLEIK
### Response 1.05

### Prompt Using known records, supply Bmax for 2B1 (antibody, V domains shown) VH: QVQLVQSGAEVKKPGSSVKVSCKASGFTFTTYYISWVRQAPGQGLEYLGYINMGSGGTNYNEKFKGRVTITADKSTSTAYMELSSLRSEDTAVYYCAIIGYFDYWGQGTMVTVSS VL: DVVMTQSPLSLPVTLGQPASISCRSSQSLLDSDGNTYLYWFQQRPGQSPRRLIYLVSTLGSGVPDRFSGSGSGTDFTLKISRVEAEDVGVYYCMQLTHWPYTFGQGTKLEIK
### Response 3.02

### Prompt Please list Bmax recorded for the binder 1H6 (antibody, human IgG4, V domains shown) VH: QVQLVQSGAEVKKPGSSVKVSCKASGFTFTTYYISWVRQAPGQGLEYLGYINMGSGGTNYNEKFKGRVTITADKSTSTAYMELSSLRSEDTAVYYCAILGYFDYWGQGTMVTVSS VL: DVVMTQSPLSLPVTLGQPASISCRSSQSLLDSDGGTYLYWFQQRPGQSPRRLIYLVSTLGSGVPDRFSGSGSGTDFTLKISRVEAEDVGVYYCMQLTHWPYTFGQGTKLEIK
### Response 3.35

### Prompt // Input: A6W (antibody, V domains shown) VH: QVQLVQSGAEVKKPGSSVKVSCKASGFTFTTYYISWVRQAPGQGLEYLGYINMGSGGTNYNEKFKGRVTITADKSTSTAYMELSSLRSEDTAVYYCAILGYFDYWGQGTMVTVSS VL: DVVMTQSPLSLPVTLGQPASISCRSSQSLLDSDGNTYLYWFQQRPGQSPRRLIYLVSTLGSGVPDRFSGSGSGTDFTLKISRVEAEDVGVYYCMQLTHWPYTFGQGTKLEIK . Output its Bmax only.
### Response 2.57

### Prompt Look up and report measured Bmax for this entry: 2C2 (antibody, human IgG4, V domains shown) VH: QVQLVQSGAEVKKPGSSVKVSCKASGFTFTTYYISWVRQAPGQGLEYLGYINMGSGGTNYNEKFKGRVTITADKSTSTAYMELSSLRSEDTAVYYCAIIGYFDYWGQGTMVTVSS VL: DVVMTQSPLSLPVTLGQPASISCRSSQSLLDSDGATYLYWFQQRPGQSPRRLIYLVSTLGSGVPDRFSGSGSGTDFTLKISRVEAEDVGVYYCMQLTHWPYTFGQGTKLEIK
### Response 3.17
